Quick reference for IC50 among some molecules
Tgt: EGFR WT (Ba/F3 cells) (Homo sapiens, UniProt P00533)
Sequence (P00533 25-1210): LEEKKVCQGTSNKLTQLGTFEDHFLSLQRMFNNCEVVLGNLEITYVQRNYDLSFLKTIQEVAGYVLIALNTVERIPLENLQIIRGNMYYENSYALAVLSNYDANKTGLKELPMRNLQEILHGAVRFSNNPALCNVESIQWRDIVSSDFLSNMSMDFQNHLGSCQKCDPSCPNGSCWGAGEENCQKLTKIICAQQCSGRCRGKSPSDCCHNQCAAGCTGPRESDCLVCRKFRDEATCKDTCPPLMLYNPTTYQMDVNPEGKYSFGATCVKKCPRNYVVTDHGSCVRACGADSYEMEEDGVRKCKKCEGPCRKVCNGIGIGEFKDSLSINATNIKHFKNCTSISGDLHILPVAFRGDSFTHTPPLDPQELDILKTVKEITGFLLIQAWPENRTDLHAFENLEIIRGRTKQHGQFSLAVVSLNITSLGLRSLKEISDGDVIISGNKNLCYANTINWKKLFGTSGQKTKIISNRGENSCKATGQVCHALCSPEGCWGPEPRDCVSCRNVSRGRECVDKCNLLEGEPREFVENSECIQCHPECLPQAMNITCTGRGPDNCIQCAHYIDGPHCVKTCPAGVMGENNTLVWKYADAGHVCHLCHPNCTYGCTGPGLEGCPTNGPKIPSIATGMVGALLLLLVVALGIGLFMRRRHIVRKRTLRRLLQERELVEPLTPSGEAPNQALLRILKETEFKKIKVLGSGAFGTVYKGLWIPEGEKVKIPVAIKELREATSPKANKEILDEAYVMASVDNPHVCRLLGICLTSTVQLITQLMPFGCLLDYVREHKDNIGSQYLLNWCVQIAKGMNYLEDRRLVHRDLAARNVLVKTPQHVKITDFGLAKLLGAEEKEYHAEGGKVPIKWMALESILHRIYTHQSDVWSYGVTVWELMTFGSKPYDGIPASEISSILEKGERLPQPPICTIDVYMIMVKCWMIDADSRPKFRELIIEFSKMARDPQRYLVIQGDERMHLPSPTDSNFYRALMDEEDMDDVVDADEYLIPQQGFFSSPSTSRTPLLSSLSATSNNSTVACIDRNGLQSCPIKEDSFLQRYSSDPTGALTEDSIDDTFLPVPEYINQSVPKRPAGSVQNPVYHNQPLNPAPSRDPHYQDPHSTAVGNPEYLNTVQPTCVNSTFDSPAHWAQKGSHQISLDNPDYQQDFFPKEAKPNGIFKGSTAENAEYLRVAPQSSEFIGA
Assay notes: Inhibitor activity on EGFR-dependent cell growth (CellTiter-Glo, 72 h), Ba/F3 EGFR WT
Test parameters: read-out: BaF3 WT IC50
Observed property: IC50

molecule=COc1c(Cl)cccc1Nc1c(-c2ccnc3ccc(OCC4CC(F)(F)C4)nc23)[nH]c2c1C(=O)NCC2 result="100 to 1000 nM"
molecule=COc1c(Cl)cccc1Nc1c(-c2ccnc(NCC(F)F)n2)[nH]c2c1C(=O)NCC2 result="> 1000 nM"
molecule="COc1c(F)cccc1Nc1c(-c2ccncc2F)[nH]c2c1C(=O)NC[C@H]2C[C@@H]1CCO1 [Compound 422a]" result="100 to 1000 nM"
molecule="COc1c(Cl)cccc1Nc1c(-c2ccnc(C)n2)[nH]c2c1C(=O)NC[C@H]2CC1COCCO1 (stereo in doubt)" result="100 to 1000 nM"
molecule=COc1c(Cl)cccc1Nc1c(-c2ccnc(Nc3ccn(CC(F)F)n3)n2)[nH]c2c1C(=O)NCC2 result="< 100 nM"
molecule=COC(=O)N1CC2(CNC(=O)c3c2[nH]c(-c2ccncc2F)c3Nc2cccc(Cl)c2OC)C1 result="> 1000 nM"
molecule=COc1c(Cl)cccc1Nc1c(-c2ccnc3ccc(OC4CCOCC4)nc23)[nH]c2c1C(=O)NCC2 result="< 100 nM"
molecule=COc1c(Cl)cccc1Nc1c(-c2ccnc3ccc(OC(C)C)nc23)[nH]c2c1C(=O)NCC2 result="< 100 nM"
molecule=COc1c(Cl)cccc1Nc1c(-c2ccncc2F)[nH]c2c1C(=O)NCC21COC1 result="> 1000 nM"
molecule=Cc1c(Cl)cccc1Nc1c(-c2ccnc(N)n2)[nH]c2c1C(=O)NCC2 result="100 to 1000 nM"
molecule=COCC[C@@H]1CNC(=O)c2c1[nH]c(-c1ccncc1F)c2Nc1cccc(F)c1C result="< 100 nM"
molecule=COc1c(Cl)cccc1Nc1c(-c2ccnc3ccc(C4CC4)nc23)[nH]c2c1C(=O)NCC2 result="< 100 nM"
molecule="COc1ccc2nccc(-c3[nH]c4c(c3Nc3cccc(Cl)c3OC)C(=O)NC[C@H]4C)c2n1 [310a]" result="< 100 nM"
molecule=COc1cc2nccc(-c3[nH]c4c(c3Nc3cccc(Cl)c3OC)C(=O)NCC4)c2nc1OCCN(C)C result="100 to 1000 nM"
molecule="COc1c(Cl)cccc1Nc1c(-c2ccncc2)[nH]c2c1C(=O)NCC2C[C@@H]1CN(C)CCO1 (single isomer, unassigned)" result="> 1000 nM"
molecule=Cc1ccc2nccc(-c3[nH]c4c(c3Nc3cccc(F)c3C)C(=O)NCC4)c2n1 result="100 to 1000 nM"
molecule=Nc1nccc(-c2[nH]c3c(c2Nc2cccc4scnc24)C(=O)NCC3)n1 result="> 1000 nM"
molecule="COc1c(Cl)cccc1Nc1c(-c2ccnc(N)n2)[nH]c2c1C(=O)NC(CO)C2 (stereo not drawn)" result="> 1000 nM"
molecule=COc1c(Cl)cccc1Nc1c(-c2ccnc(NCc3ccn(C)n3)n2)[nH]c2c1C(=O)NCC2 result="100 to 1000 nM"
molecule="COc1c(F)cccc1Nc1c(-c2ccncc2F)[nH]c2c1C(=O)NC[C@@H]2CC1COCCO1 (stereo in doubt)" result="100 to 1000 nM"
molecule=CSc1c(Cl)cccc1Nc1c(-c2ccnc(N)n2)[nH]c2c1C(=O)NCC2 result="> 1000 nM"
molecule=COc1c(Cl)cccc1Nc1c(-c2ccnc(N)c2F)[nH]c2c1C(=O)NCC2 result="100 to 1000 nM"
molecule=COc1c(Cl)cccc1Nc1c(-c2ccnc3cnc(OCCN(C)C)nc23)[nH]c2c1C(=O)NCC2 result="> 1000 nM"
molecule="COc1c(Cl)cccc1Nc1c(-c2ccnc(N)n2)[nH]c2c1C(=O)N[C@@H](C)C2 [187a]" result="> 1000 nM"
molecule="COc1c(F)cccc1Nc1c(-c2ccncc2F)[nH]c2c1C(=O)NC[C@H]2C[C@H]1CCO1 [Compound 422d]" result="100 to 1000 nM"
molecule=COc1c(Cl)cccc1Nc1c(-c2ccncc2F)[nH]c2c1C(=O)NC[C@@]21CCN(CC(F)(F)F)C1 result="100 to 1000 nM"
molecule="CC[C@@H]1CNC(=O)c2c1[nH]c(-c1ccnc(N)n1)c2Nc1cccc(Cl)c1OC [189a]" result="100 to 1000 nM"
molecule=COc1c(Cl)cccc1Nc1c(-c2ccnc3ccc(C)nc23)[nH]c2c1C(=O)NCC2 result="100 to 1000 nM"
molecule=COc1c(Cl)cccc1Nc1c(-c2ccnc(-c3ccn(C)n3)n2)[nH]c2c1C(=O)NCC2 result="> 1000 nM"
molecule=COc1c(F)cccc1Nc1c(-c2ccncn2)[nH]c2c1C(=O)NC[C@@H]2C[C@@H]1COCCO1 result="> 1000 nM"

---

Tgt: EGFR exon 20 FQEA Ins A763_V764 (Ba/F3 cells) (Homo sapiens, UniProt P00533, INS763FQEA)
Sequence (P00533 with tags, fused parts or gaps INS763FQEA): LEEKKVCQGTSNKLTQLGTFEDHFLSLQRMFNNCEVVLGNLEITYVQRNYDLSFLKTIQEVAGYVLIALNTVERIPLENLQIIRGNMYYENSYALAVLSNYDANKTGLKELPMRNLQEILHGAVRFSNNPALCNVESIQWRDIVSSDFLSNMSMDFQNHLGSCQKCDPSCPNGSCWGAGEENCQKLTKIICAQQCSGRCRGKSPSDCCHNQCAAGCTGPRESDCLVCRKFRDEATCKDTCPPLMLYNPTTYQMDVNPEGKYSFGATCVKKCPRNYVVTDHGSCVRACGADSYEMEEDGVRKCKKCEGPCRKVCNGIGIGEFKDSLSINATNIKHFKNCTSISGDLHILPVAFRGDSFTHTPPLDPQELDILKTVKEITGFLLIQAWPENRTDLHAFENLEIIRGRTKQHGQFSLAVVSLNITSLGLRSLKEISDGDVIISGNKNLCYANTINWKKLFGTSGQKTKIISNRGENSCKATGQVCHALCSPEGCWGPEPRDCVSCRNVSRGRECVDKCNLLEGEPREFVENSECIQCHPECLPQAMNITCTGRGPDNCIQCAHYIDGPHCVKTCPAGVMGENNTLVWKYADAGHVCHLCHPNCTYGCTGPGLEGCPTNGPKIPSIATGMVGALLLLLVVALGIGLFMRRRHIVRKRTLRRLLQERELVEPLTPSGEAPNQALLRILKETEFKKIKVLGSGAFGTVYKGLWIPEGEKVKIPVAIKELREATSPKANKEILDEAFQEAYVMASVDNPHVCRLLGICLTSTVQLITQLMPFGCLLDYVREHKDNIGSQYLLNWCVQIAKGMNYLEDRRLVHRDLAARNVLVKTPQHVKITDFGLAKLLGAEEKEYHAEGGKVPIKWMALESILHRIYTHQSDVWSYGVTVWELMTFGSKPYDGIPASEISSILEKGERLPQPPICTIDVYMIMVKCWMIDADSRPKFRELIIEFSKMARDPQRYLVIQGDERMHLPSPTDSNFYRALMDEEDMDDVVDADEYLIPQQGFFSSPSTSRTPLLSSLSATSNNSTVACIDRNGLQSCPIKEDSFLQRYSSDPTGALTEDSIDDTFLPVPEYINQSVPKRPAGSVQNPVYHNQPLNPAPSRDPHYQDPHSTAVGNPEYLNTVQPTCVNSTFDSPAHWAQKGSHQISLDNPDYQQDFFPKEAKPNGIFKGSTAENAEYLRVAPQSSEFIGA
Assay notes: Inhibitor activity on EGFR-dependent cell growth (CellTiter-Glo, 72 h), Ba/F3 EGFR exon 20 FQEA Ins
Test parameters: read-out: BaF3 FQEA IC50
Observed property: IC50

compound=COc1ncc2nccc(-c3[nH]c4c(c3Nc3cccc(Cl)c3F)C(=O)NCC4)c2n1 result="< 100 nM"
compound=COc1ncc2nccc(-c3[nH]c4c(c3Nc3cccc(F)c3OC)C(=O)NCC4)c2n1 result="< 100 nM"
compound=COc1c(Cl)cccc1Nc1c(-c2ccnc3ccc(OC4CCOCC4)nc23)[nH]c2c1C(=O)NCC2 result="< 100 nM"
compound=COc1c(F)cccc1Nc1c(-c2ccnc3cnc(OC4COC4)nc23)[nH]c2c1C(=O)NCC2 result="< 100 nM"
compound=COc1c(Cl)cccc1Nc1c(-c2ccnc3ccc(OCC4CCC4)nc23)[nH]c2c1C(=O)NCC2 result="100 to 1000 nM"
compound=COc1c(F)cccc1Nc1c(-c2ccnc(-c3cnn(C)c3)c2)[nH]c2c1C(=O)NCC2 result="> 1000 nM"
compound=Nc1nccc(-c2[nH]c3c(c2Nc2ccc(Cl)cc2)C(=O)NCC3)n1 result="> 1000 nM"
compound=COc1cc(Cl)cc(Nc2c(-c3ccnc(N)n3)[nH]c3c2C(=O)NCC3)c1 result="> 1000 nM"
compound=COc1ncc2nccc(-c3[nH]c4c(c3Nc3cccc(F)c3CC(F)F)C(=O)NCC4)c2n1 result="100 to 1000 nM"
compound="COc1c(F)cccc1Nc1c(-c2ccncc2F)[nH]c2c1C(=O)NC[C@H]2CC1COC1 [469a]" result="> 1000 nM"
compound=COc1c(Cl)cccc1Nc1c(-c2ccnc3ccc(O[C@@H]4CCCOC4)nc23)[nH]c2c1C(=O)NCC2 result="< 100 nM"
compound=Cc1c(C#N)cccc1Nc1c(-c2ccnc(N)n2)[nH]c2c1C(=O)NCC2 result="> 1000 nM"
compound=COc1c(F)cccc1Nc1c(-c2ccnc(SC)n2)[nH]c2c1C(=O)NCC2 result="100 to 1000 nM"
compound=COc1c(Cl)cccc1Nc1c(-c2ccnc3[nH]cnc23)[nH]c2c1C(=O)NCC2 result="< 100 nM"
compound=COc1ccc2nccc(-c3[nH]c4c(c3Nc3cccc(Cl)c3OC)C(=O)NC[C@@H]4CCF)c2n1 result="< 100 nM"
compound=COc1c(Cl)cccc1Nc1c(-c2ccnc(NCC3CC(F)(F)C3)c2)[nH]c2c1C(=O)NCC2 result="> 1000 nM"
compound=CNc1cc(-c2[nH]c3c(c2Nc2cccc(Cl)c2OC)C(=O)NCC3)ncn1 result="> 1000 nM"
compound=COc1c(Cl)cccc1Nc1c(-c2ccnc3ccc(OC4COC4)nc23)[nH]c2c1C(=O)NCC2 result="< 100 nM"
compound="COc1c(Cl)cccc1Nc1c(-c2ccnc(N)n2)[nH]c2c1C(=O)N[C@@H](C)C2 [187a]" result="100 to 1000 nM"
compound=COCc1ccc2nccc(-c3[nH]c4c(c3Nc3cccc(Cl)c3OC)C(=O)NCC4)c2n1 result="< 100 nM"
compound=COc1c(Cl)cccc1Nc1c(-c2ccncc2F)[nH]c2c1C(=O)NC[C@@H]2C[C@H]1COCCO1 result="< 100 nM"
compound=COc1c(Cl)cccc1Nc1c(-c2ccncn2)[nH]c2c1C(=O)NC[C@H]2C[C@@H]1COCCO1 result="< 100 nM"
compound="COc1c(Cl)cccc1Nc1c(-c2ccncc2F)[nH]c2c1C(=O)NCC21CCOC1 (single isomer, unassigned)" result="100 to 1000 nM"
compound=Cc1c(F)cccc1Nc1c(-c2nc(N)ncc2F)[nH]c2c1C(=O)NCC2 result="100 to 1000 nM"
compound="COc1ccc2nccc(-c3[nH]c4c(c3Nc3cccc(Cl)c3OC)C(=O)NC[C@H]4C)c2n1 [310a]" result="< 100 nM"
compound=COCCOc1ccc2nccc(-c3[nH]c4c(c3Nc3cccc(Cl)c3OC)C(=O)NCC4)c2n1 result="< 100 nM"
compound=CCOc1ncc2nccc(-c3[nH]c4c(c3Nc3cccc(Cl)c3OC)C(=O)NCC4)c2n1 result="< 100 nM"
compound=COc1ccc2nccc(-c3[nH]c4c(c3Nc3cccc(Cl)c3OC)C(=O)NCC43CC3)c2n1 result="< 100 nM"
compound="COc1c(Cl)cccc1Nc1c(-c2ccncc2F)[nH]c2c1C(=O)NC[C@H]2CC1COC1 [468b]" result="100 to 1000 nM"
compound=COc1c(Cl)cccc1Nc1c(-c2ccncc2F)[nH]c2c1C(=O)NC[C@]21CCN(C)C1 result="100 to 1000 nM"
compound="COc1c(Cl)cccc1Nc1c(-c2ccnc(N)n2)[nH]c2c1C(=O)NC[C@H]2C [186b]" result="100 to 1000 nM"
